Attribution: ChEMBL document CHEMBL1142521

experiment: Chemical stability in simulated gastric fluid after 60 mins; assay type: physicochemical; conditions: read-out: Stability

[
  {
    "compound": "CC1=C2C[C@H]3[C@@H](CCC4=CC(=O)CC[C@@]43C)[C@@H]2CC[C@@]2(C1)O[C@@H]1C[C@H](C)CN[C@H]1[C@H]2C",
    "remaining at 1 h": "98%"
  },
  {
    "compound": "CC1=C2C[C@H]3[C@@H](CC=C4C[C@@H](O)CC[C@@]43C)[C@@H]2CC[C@]12O[C@@H]1C[C@H](C)CN[C@H]1[C@H]2C [CYCLOPAMINE]",
    "remaining at 1 h": "60%"
  }
]
